The reader will find reported melting point values listed item by item below.

compound: CN(C)c1ccc(C=C2C3=C(CCCC3)OC3=C2CCCC3)cc1
melting point [°C]: 164

compound: COc1ccc(N/C=C2\C(=O)C3(C)CCC2C3(C)C)cc1 (stereo not given)
melting point [°C]: 171

compound: CCCCCCCCC(C)=O
melting point [°C]: 14

* * *

Checkbox rule: melting point lower than 100 °C = 1; melting point not lower than 100 °C = 0.

compound: Cc1n[nH]cc1-c1ccccc1
label-class: 0
//
compound: Nc1cnccc1I
label-class: 1
//
compound: CC(=O)c1cccc(-c2ccccc2)c1
label-class: 1
//
compound: COc1ccc2c(c1)c(CC(=O)OCC(=O)O)c(C)n2C(=O)c1ccc(Cl)cc1
label-class: 0
//
compound: O=c1[nH]ccc(=S)[nH]1
label-class: 0
//
compound: O=C1c2cccc3cccc(c23)C(=O)N1O
label-class: 0
//
compound: Cc1nc(-c2cccc(C(=O)Cl)c2)no1
label-class: 1
//
compound: Cc1ccncc1C=NO
label-class: 0
//
compound: Cc1nnc2sc(SCC(=O)O)nn2c1=O
label-class: 0
//
compound: O=C(O)c1cc(S(=O)(=O)O)ccc1O
label-class: 0
//
compound: Nc1nn2c(-c3ccccc3)cc(=O)[nH]c2c1/N=N/c1c(Br)cc(Br)cc1Br
label-class: 0
//
compound: O=C(O)CSCC(=O)NC1CCSC1=O (configuration not stated)
label-class: 0
//
compound: CCN(CC)CCNC(=O)c1cc(S(C)(=O)=O)ccc1OC
label-class: 0
//
compound: N#C/C(=C\c1ccc(Cl)cc1)c1nc2ccccc2s1
label-class: 0
//
compound: c1ccc(P(CCP(c2ccccc2)c2ccccc2)c2ccccc2)cc1
label-class: 0
//
compound: Nc1cccc(S(=O)(=O)O)c1
label-class: 0
//
compound: CC(=O)OC1CC2C(C)C(=O)C3(C(O)CC4C(C)(C)CCCC4(CO)C13)C2O (configuration not stated)
label-class: 0
//
compound: c1cnc2ccc3ncccc3c2c1
label-class: 0
//
compound: c1cc(CCCc2ccncc2)ccn1
label-class: 1
//
compound: Cl[Si](Cl)(Cl)CCC12CC3CC(CC(C3)C1)C2
label-class: 1
//
compound: CC(=O)OC(CCC(=O)c1ccccc1)c1ccccc1 (configuration not stated)
label-class: 1
//
compound: O=C(Nc1ccc([N+](=O)[O-])cc1)C(F)(F)C(F)(F)C(F)(F)C(F)(F)C(F)(F)C(F)(F)C(F)(F)C(F)(F)F
label-class: 0
//
compound: COc1ccc(N=C=S)cc1OC
label-class: 1
//
compound: Clc1cc(Cl)cc(C2(CC(Cl)(Cl)Cl)CO2)c1 (configuration not stated)
label-class: 1
//
compound: Clc1ccc2c(c1)Oc1c(Cl)c(Cl)c(Cl)c(Cl)c1O2
label-class: 0
//
compound: CCCCCCCOC(=O)CCC
label-class: 1
//
compound: OCCN(CCO)CCc1ccc(CSc2ccccc2)cc1
label-class: 1
//
compound: CC(C)(C)NCC(O)COc1ccccc1C#N (configuration not stated)
label-class: 0
//
compound: CC(=O)OC1CC2C(C)(C)CCCC2(C)C2=C1C(=O)C(C(C)C)=C(O)C2=O (configuration not stated)
label-class: 0
//
compound: FC(F)=C(Cl)Cl
label-class: 1
//
compound: CCCCOCCCN
label-class: 1
//
compound: O=C(O)C(=O)c1ccc([N+](=O)[O-])cc1
label-class: 0
//
compound: CC(C)SSC(C)C
label-class: 1
//
compound: CCC(C(=O)Nc1ccc(C)cc1)c1ccc(C)cc1 (configuration not stated)
label-class: 0
//
compound: c1ccc(-c2ccc3ccccc3c2)cc1
label-class: 0
//
compound: O=C(c1ccc(Cl)cc1)c1nn(-c2ccccc2)/c(=N\N=Cc2ccc(F)cc2)s1
label-class: 0
//
compound: COc1ccc(C(=O)/C(=N\Nc2cc(Cl)ccc2Cl)S(=O)(=O)c2ccccc2)cc1
label-class: 0
//
compound: OCCCN1CCNCC1
label-class: 1

* * *

The reader will find reported melting point values listed item by item below.

compound: O=C(O)COc1cccc(OCC(=O)O)c1
u: °C
value-comparator: =
melting point: 194
//
compound: C(=N\c1cc2c(cc1CCc1ccccc1)CC(c1ccccc1)N2)/c1ccccc1 (configuration not stated)
u: °C
value-comparator: =
melting point: 118
//
compound: N=C(N)NCC(O)CC(O)(C(=O)O)C1OC(n2cc(CO)c(N)nc2=O)C=CC1NC(=O)C(N)CO (configuration not stated)
u: °C
value-comparator: >
melting point: 300
//
compound: CC(=O)OC1CC2CCC1(C)C2(C)C (configuration not stated)
u: °C
value-comparator: =
melting point: 29
//
compound: O=C(O)Cc1ccccc1Oc1ccc(Cl)cc1Cl
u: °C
value-comparator: =
melting point: 112
//
compound: Cc1ccnc(SCC(=O)O)n1
u: °C
value-comparator: =
melting point: 192
//
compound: Nc1c(O)cccc1[N+](=O)[O-]
u: °C
value-comparator: =
melting point: 216

* * *

The reader will find reported melting point values listed item by item below.

molecule: O=c1c2c(oc3c1CCCC3)CCCC2
melting point [°C]: 130
//
molecule: CC(CO)CO
melting point [°C]: -91
//
molecule: CCCCOC(=O)C(C)O (centres undefined)
melting point [°C]: -28
//
molecule: Cc1c(C#N)c2ccccc2n1C
melting point [°C]: 105
//
molecule: Clc1cccc(Cl)c1N=C1NCCN1
melting point [°C]: 130
//
molecule: CC1=C(C(=O)OC(C)(C)C)C(c2ccco2)NC(=O)N1 (centres undefined)
melting point [°C]: 208
//
molecule: O=c1oc2c(o1)=C(c1ccccc1)S(=O)(=O)C=2c1ccccc1
melting point [°C]: 227
//
molecule: CC(C)(C)C(=O)OCC(=O)C1(O)CCC2C3CCC4=CC(=O)C=CC4(C)C3C(O)CC21C (centres undefined)
melting point [°C]: 233
//
molecule: CN(c1c(F)c(F)c(F)c(F)c1F)N(O)O
melting point [°C]: 39.5
//
molecule: CC(=O)OC1CCCCC1
melting point [°C]: -65
//
molecule: Cn1c(=O)c(C2=NNC(=O)C2=NNc2ccccc2)c(O)c2ccccc21
melting point [°C]: 213
//
molecule: Cc1ccccc1CN
melting point [°C]: -30
//
molecule: Cn1c(=O)c(C2=NNC(=O)C2=NNc2cccc(Cl)c2)c(O)c2ccccc21
melting point [°C]: 222
//
molecule: COc1ccc(C(C)=NO)cc1
melting point [°C]: 80
//
molecule: CCC(=O)OC1(C(=O)CCl)C(C)CC2C3CCC4=CC(=O)C=CC4(C)C3(F)C(O)CC21C (centres undefined)
melting point [°C]: 196
//
molecule: CN(C)CCCN1c2ccccc2CCc2ccc(Cl)cc21
melting point [°C]: 190
//
molecule: Cc1c(C(=O)O)sc2c1CCCC2
melting point [°C]: 218
//
molecule: CN(C)CCCOc1nn(Cc2ccccc2)c2ccccc12
melting point [°C]: 160
//
molecule: NC(=O)NN=CC[N+](=O)[O-]
melting point [°C]: 360
//
molecule: CCOC(=O)CC(=O)C(F)(F)F
melting point [°C]: -39
//
molecule: CC12CCCC1C1CCC3CC(=O)CCC3(C)C1CC2 (centres undefined)
melting point [°C]: 102
//
molecule: O=C1Cc2ccccc21
melting point [°C]: 14
//
molecule: COc1ccc(CCO)cc1OC
melting point [°C]: 46
//
molecule: O=[N+]([O-])c1ccc2cccnc2c1
melting point [°C]: 132
//
molecule: Cc1c(C)c([N+](=O)[O-])c(C)c(C)c1[N+](=O)[O-]
melting point [°C]: 212
//
molecule: O=C1Nc2c(Cl)cccc2C1=O
melting point [°C]: 190
//
molecule: CCCCC(C(N)=O)n1nc2ccccc2n1 (centres undefined)
melting point [°C]: 102
//
molecule: O=C(O)Cc1nn(Cc2nc3cc(C(F)(F)F)ccc3s2)c(=O)c2ccccc12
melting point [°C]: 197
//
molecule: Cc1cc(N=Nc2ccccc2)c(C(C)C)cc1N=Nc1ccccc1
melting point [°C]: 108
//
molecule: Sc1nccs1
melting point [°C]: 78.5
//
molecule: NC(=O)c1c(F)cccc1Cl
melting point [°C]: 141
//
molecule: O=C1Cc2cc3c(cc21)C(=O)C3
melting point [°C]: 207
//
molecule: CN(C)CCCCN(C)C
melting point [°C]: -100
//
molecule: Cc1cc(C)c([N+](=O)[O-])c(C)c1[N+](=O)[O-]
melting point [°C]: 85.3
//
molecule: Nc1cc2ccccc2oc1=O
melting point [°C]: 136
//
molecule: ClCc1cc(Cl)cc2c1OCOC2
melting point [°C]: 101
//
molecule: CC(=O)NC1C2CCC(C)(C1NC(C)=O)C2(C)C (centres undefined)
melting point [°C]: 309
//
molecule: C#CC(O)CCC (centres undefined)
melting point [°C]: -80
//
molecule: COC(=O)c1ccc(OCc2ccccc2)cc1
melting point [°C]: 98
